TEST_PROTOCOL: Intrinsic clearance in human liver microsomes
Type: in vitro ADME
PROTOCOL_CONDITIONS: human, pooled human liver microsomes, pH 7.4, human liver microsome assay, 1 μM test compound; mean +/− STD Dev
Experimental: The incubations were conducted at 37° C. […] (Sorvall R C 3C Plus, Thermo Scientific, Waltham, Mass.).
Counter-ions that a name gives are not always drawn.
READOUT_LABEL: microsomal CLint at 1 μM (µL/min/mg)
Numeric answer only, unit µL/min/mg assumed.

Here's what some known entries look like.
>>> measured_result("CCOc1cccnc1Oc1cncc(-c2ncc(C(=O)N[C@H]3CNCC[C@H]3C)cn2)c1 (racemic) [Example 20, trifluoroacetate salt]")
8.9
>>> measured_result("CCOc1cccnc1Oc1cncc(-c2ncc(C(=O)N[C@H]3CNCCC3(F)F)cn2)c1 (single isomer, unassigned) [Example 15, trifluoroacetate salt]")
21

Could you now consider this next molecule?
Exam item: Returns the measured microsomal CLint at 1 μM for the input molecule. Input: CCOc1cccnc1Oc1cncc(-c2ncc(C(=O)N[C@H]3CNC[C@@H](F)C3)cn2)c1 (racemic) [Example 25, trifluoroacetate salt]
Marked response: 11

###

Below: a set of entries, each annotated with reported hepatocyte CLint at 1 μM.
TEST_PROTOCOL: Intrinsic clearance in human hepatocytes (relay method)
Assay type: in vitro ADME
PROTOCOL_CONDITIONS: cryopreserved human hepatocytes (suspension), relay hepatocyte assay, 1 μM test compound, mean +/− Std Dev
Numeric answer only, unit µL/min/1e6 cells assumed.

>>> measured_result("CCOc1cccnc1Oc1cncc(-c2ncc(C(=O)N[C@@H]3CNCC[C@H]3F)cn2)c1")
1.9

Exam item: Returns the measured hepatocyte CLint at 1 μM for the input compound. Input: CCOc1cccnc1Oc1cncc(-c2ncc(C(=O)N[C@@H]3CNC[C@@H](F)C3)cn2)c1
Marked response: 0.98

###

Below: a set of entries, each annotated with reported hepatocyte CLint at 1 μM.
TEST_PROTOCOL: High throughput determination of intrinsic clearance in human hepatocytes
Type: in vitro ADME
PROTOCOL_CONDITIONS: human, pooled cryopreserved human hepatocytes (suspension), high throughput human hepatocyte assay, 1 μM test compound; mean +/− Std Dev
Counter-ions that a name gives are not always drawn.
Numeric answer only, unit µL/min/1e6 cells assumed.

>>> measured_result("CCOc1cccnc1Oc1cncc(-c2ncc(C(=O)N[C@@H]3CNCC(F)(F)C3)cn2)c1 (single isomer, unassigned)")
9.3

Could you now consider this next compound?
Exam item: Returns the measured hepatocyte CLint at 1 μM for the input compound. Input: CCOc1cccnc1Oc1cncc(-c2ncc(C(=O)N[C@H]3CNC[C@@H](F)C3)cn2)c1 (racemic) [Example 25, trifluoroacetate salt]
Marked response: 6.5

###

TEST_PROTOCOL: Determination of pKa (capillary electrophoresis, Analiza)
Assay type: physicochemical
PROTOCOL_CONDITIONS: most basic pKa, mean
Where a name gives a salt, the structure may show the parent alone.
READOUT_LABEL: pKa

Here's what some known entries look like.
>>> measured_result("CCOc1cccnc1Oc1cncc(-c2ncc(C(=O)N[C@H]3CNC[C@@H](F)C3)cn2)c1 (racemic) [Example 25, trifluoroacetate salt]")
6.8
>>> measured_result("CCOc1cccnc1Oc1cncc(-c2ncc(C(=O)N[C@H]3CCC(C(F)(F)F)NC3)cn2)c1 (single isomer, unassigned) [Example 8]")
5.3
>>> measured_result("CCOc1cccnc1Oc1cncc(-c2ncc(C(=O)N[C@H]3CC[C@H](C(F)(F)F)NC3)cn2)c1 (racemic) [Example 9]")
4
>>> measured_result("CCOc1cccnc1Oc1cncc(-c2ncc(C(=O)NC3CNCC(F)(F)C3)cn2)c1 (stereo not shown) [Example 17]")
5.4
>>> measured_result("CCOc1cc(F)cnc1Oc1cncc(-c2ncc(C(=O)N[C@@H]3CNCC[C@H]3F)cn2)c1 [Example 6]")
7.4

Exam item: Returns the measured pKa for the input molecule. Input: CCOc1cccnc1Oc1cncc(-c2ncc(C(=O)N[C@@H]3CNC[C@@H](F)C3)cn2)c1 [Example 4]
Marked response: 7.5

Exam item: Follow-up entry: CCOc1cccnc1Oc1cncc(-c2ncc(C(=O)N[C@H]3CNCCC3(F)F)cn2)c1 (single isomer, unassigned) [Example 16, trifluoroacetate salt]
Marked response: 6.4
